# tested_target: ΔF508-CFTR (Homo sapiens, UniProt P13569, DEL508-508)
# Construct: host or cells: CFBE41o- cells, doxycycline-inducible expression
# Sequence (P13569 with tags, fused parts or gaps DEL508-508): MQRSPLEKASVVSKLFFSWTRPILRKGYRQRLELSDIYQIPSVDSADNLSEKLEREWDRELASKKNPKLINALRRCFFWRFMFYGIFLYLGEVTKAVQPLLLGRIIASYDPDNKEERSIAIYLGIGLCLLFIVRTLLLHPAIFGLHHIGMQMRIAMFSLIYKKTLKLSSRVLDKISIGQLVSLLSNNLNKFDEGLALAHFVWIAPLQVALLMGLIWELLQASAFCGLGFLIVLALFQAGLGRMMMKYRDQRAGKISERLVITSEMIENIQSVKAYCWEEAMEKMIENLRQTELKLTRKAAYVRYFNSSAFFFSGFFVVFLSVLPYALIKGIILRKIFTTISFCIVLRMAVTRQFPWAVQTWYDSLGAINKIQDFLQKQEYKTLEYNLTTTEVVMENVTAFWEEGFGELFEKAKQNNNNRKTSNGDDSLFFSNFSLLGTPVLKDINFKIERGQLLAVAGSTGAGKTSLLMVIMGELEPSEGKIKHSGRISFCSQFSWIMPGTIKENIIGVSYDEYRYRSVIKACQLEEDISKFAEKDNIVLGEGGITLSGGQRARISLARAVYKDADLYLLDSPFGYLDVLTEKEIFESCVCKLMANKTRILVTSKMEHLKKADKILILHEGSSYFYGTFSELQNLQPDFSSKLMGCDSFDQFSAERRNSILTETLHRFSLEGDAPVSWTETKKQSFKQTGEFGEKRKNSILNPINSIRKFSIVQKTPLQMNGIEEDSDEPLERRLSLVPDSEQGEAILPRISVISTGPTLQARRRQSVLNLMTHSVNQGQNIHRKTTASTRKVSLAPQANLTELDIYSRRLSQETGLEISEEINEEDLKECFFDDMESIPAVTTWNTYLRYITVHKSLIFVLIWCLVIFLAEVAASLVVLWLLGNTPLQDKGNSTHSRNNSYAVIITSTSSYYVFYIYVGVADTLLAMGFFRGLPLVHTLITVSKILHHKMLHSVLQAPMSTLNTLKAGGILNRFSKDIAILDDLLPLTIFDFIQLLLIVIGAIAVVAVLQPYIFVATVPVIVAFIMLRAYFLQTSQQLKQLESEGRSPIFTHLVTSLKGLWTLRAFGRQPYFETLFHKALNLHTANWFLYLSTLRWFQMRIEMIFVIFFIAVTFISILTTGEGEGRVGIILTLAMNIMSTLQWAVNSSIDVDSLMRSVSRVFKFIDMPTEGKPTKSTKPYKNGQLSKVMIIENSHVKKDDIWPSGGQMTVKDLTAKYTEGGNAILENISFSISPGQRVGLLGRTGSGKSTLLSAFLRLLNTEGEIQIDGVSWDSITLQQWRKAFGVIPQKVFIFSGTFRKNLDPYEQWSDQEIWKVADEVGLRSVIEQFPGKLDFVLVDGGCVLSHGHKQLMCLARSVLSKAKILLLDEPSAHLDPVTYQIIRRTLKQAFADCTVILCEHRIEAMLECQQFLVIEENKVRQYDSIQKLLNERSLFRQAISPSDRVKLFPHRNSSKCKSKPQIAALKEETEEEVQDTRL
# procedure_details: CFTR cell surface levels using HRP-tagged ΔF508-CFTR expressing CFBE cells, in the presence of a co-corrector
# Type: cell-based
# measurement_context: HRP-tagged ΔF508-CFTR CFBE41o- cells, with 3 μM co-corrector
quantity: pEC50
In textbook form, pEC50 equals minus log to base ten of the concentration in mol/L.

Reference set, count: 4
# molecule, quantity, recorded_value
records = [
    ("Cc1nn(C2CCCCC2)c2nc(C(=O)NS(C)(=O)=O)cc(-c3ccc(N4CCOCC4)nc3)c12", "pEC50", 5.79),
    ("CC(c1ccc(-c2cc(C(=O)NS(=O)(=O)N(C)C)nc3c2c(C2CCC2)nn3C2CCCCC2)cc1)N1CCOCC1 (centres unmarked)", "pEC50", 7.41),
    ("CC(C)Oc1nn(C2CCCCC2)c2nc(C(=O)NS(C)(=O)=O)cc(-c3ccc(C4(C#N)CCN(C)CC4)cc3)c12", "pEC50", 7.13),
    ("CN(C)S(=O)(=O)NC(=O)c1cc(N2CCC(N3CCC(C#N)C3)CC2)c2c(C3CCC3)nn(-c3ccc(F)cc3)c2n1 (centres unmarked)", "pEC50", 7.38),
]

Next item in the queue.
Which measured pEC50 belongs to CS(=O)(=O)NC(=O)c1cc(OCCCN2CCCCC2)c2c(C3CCC3)nn(-c3ccccc3)c2n1 , tested on ΔF508-CFTR (Homo sapiens, UniProt P13569, DEL508-508)? 6.16

====

# tested_target: CFTR ΔF508 (Homo sapiens, UniProt P13569, DEL508-508)
# Construct: bronchial epithelial cells isolated from CF patients homozygous for the CFTR ΔF508 mutation; McGill University; Asterand; University of North Carolina hAEC-CF; host or cells: primary human bronchial epithelial cells from CF patients homozygous for ΔF508
# Sequence (P13569 with tags, fused parts or gaps DEL508-508): as above
# procedure_details: Chronic TECC assay, primary bronchial epithelial cells from CF patients homozygous for CFTR ΔF508
# Format: cell-based
# measurement_context: read-out: % Activity at 3 μM (AUC**)
Rule: activity at 3 µM of 300% or more gives rule met; anything lower gives rule not met.

Use these answered entries as a reference point.
# chemical_smiles, group
rows = [
    ("O=C(NS(=O)(=O)N1CCOCC1)c1cc(N2CCC(CN3CCCC3)CC2)c2c(C3CCC3)nn(-c3ccccc3)c2n1", "rule not met"),
    ("CS(=O)(=O)NC(=O)c1cc(N2CCC(N3CCOCC3)CC2)c2c(C3CCC3)nn(-c3ccccc3)c2n1", "rule met"),
    ("COCC1CCN(c2cc(C(=O)N(C)S(C)(=O)=O)nc3c2c(C2CCC2)nn3-c2ccccc2)CC1", "rule met"),
    ("CN(C(=O)c1cc(N2CCC(N3CCOCC3)CC2)c2c(C3CCC3)nn(-c3ccccc3)c2n1)S(C)(=O)=O", "rule not met"),
    ("CS(=O)(=O)NC(=O)c1cc(N2CCC(N3CCCCC3)CC2)c2c(C3CCC3)nn(-c3ccccc3)c2n1", "rule met"),
]

Check if activity at 3 µM >= 300% (inclusive). Item: CCS(=O)(=O)N(C)C(=O)c1cc(N2CCC(N3CCOCC3)CC2)c2c(C3CCC3)nn(-c3ccccc3)c2n1 rule not met

Origin of values: patent US20190202823A1
